- System Under Test: Muscarinic acetylcholine receptor M4 (Homo sapiens)
- Particulars: Flp-In-CHO, filed as positive allosteric modulator, time 8.0 min
Values of log(activity) greater than or equal to 2 map to Yes; values below map to No.

Here's what some known entries look like.
>  <Chem Smiles>
Cc1ccc(-c2cnn(CC3CCCC3)c2)c(-c2ccc3c(c2)C(=O)NC3)n1

>  <Class Label>
Yes

$$$$
>  <Chem Smiles>
Cc1cnc(-c2ccc3c(c2)C(=O)N(C)C3)c(-c2cnn(CC3CCCC3)c2)c1

>  <Class Label>
Yes

$$$$
>  <Chem Smiles>
COC(=O)CCCn1cc(-c2ccc(C)nc2-c2ccc3c(c2)C(=O)N(C)C3)cn1

>  <Class Label>
No

$$$$
>  <Chem Smiles>
Cc1ccc(-c2cnn(CCC#N)c2)c(-c2ccc3c(c2)C(=O)N(C)C3)n1

>  <Class Label>
No

$$$$

Let's switch to this compound now.
Exam item: decide whether the reported log(activity) for `Cc1ccc(-c2cnn(CC3CCCC3)c2)c(-c2ccc3c(c2)C(=O)N(C)C3)n1` is at least 2.
No
